Where these numbers come from: patent US20260116991A1

// reported OD450 nm for each item listed
Test target: T1, human GPC3-His protein (human, UniProt P51654 25-559)
T1 construct: Bought protein; also called human GPC3 protein; not shown: His tag
Method summary: ELISA, coated human GPC3, antibody 1 nM;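 further: antigen coated at 1 µg/mL on 96-well plates, antibody bound for 2 h at 37 °C, detected with HRP-labeled secondary antibody and TMB, absorbance read at 450 nm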
Form entry: value (OD450) — number only.

Binder: F1.42.8 human-murine chimeric antibody (antibody, human IgG1, kappa, V domains shown) VH: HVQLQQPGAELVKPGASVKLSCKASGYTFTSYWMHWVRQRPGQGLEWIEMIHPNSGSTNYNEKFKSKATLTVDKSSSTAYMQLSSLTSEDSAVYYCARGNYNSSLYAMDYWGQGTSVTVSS VL: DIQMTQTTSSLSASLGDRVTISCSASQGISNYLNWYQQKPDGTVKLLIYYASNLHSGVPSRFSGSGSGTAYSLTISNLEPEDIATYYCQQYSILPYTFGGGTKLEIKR
Test readout: OD450 nm
Measured value: 2.02
--
Binder: F4.26.1 human-murine chimeric antibody (antibody, human IgG1, kappa, V domains shown) VH: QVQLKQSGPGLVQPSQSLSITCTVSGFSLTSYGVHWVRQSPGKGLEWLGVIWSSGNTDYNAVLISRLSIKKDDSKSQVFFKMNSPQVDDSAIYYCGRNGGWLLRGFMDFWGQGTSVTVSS VL: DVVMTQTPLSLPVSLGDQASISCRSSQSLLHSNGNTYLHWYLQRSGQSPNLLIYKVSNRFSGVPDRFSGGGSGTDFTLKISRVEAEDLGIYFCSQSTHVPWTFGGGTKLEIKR
Test readout: OD450 nm
Measured value: 1.25
--
Binder: F1.120.16 human-murine chimeric antibody (antibody, human IgG1, kappa, V domains shown) VH: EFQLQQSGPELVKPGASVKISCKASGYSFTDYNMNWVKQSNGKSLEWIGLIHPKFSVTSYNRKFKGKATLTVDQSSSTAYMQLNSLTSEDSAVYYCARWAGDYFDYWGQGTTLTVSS VL: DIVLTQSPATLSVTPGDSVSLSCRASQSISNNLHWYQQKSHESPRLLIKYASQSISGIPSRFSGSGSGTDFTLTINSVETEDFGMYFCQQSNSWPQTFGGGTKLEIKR
Test readout: OD450 nm
Measured value: 1.23
--
Binder: F1.145.22 human-murine chimeric antibody (antibody, human IgG1, kappa, V domains shown) VH: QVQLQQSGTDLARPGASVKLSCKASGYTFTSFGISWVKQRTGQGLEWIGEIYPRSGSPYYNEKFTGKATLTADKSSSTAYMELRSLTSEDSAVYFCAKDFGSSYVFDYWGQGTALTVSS VL: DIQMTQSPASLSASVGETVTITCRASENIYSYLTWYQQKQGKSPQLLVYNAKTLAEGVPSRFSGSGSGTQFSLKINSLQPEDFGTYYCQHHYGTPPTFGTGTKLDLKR
Test readout: OD450 nm
Measured value: 1.95

Moving on to another binder below.
Ask: Entry F2.152.3 human-murine chimeric antibody (antibody, human IgG1, kappa, V domains shown) VH: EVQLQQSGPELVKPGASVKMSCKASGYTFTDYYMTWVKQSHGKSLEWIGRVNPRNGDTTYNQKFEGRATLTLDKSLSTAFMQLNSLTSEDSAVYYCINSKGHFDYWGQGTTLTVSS VL: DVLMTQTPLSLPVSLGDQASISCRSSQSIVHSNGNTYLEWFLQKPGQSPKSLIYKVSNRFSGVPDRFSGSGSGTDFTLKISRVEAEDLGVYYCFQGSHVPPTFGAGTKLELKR needs its OD450 nm filled in; supply it.
Result: 2.28
